read-out: Bcl-2 (BAX) gene, BAX (gene 581); experiment: LTEA_HepaRG_BAX: Life Technologies and Expression Analysis (LTEA) Assay for Bcl-2 (BAX) gene using HepaRG (AID 2283470); conditions: mRNA level, 48 h; actives raise or lower the signal
Calls of active or inactive are those of the source. How the source made its calls: active means hit-call score of the fitted dose curve at least 0.9, where 1 is the maximum; inactive means score below 0.9.
REPORTED PROPERTY: AC50

{"columns": ["MOLECULE", "AC50"],
 "data": [
  ["O=C(O)c1cccc(Oc2ccccc2)c1", "inactive"],
  ["CCCCCCCCCCCCc1ccccc1", "inactive"],
  ["COc1cccc(-c2ccc(/C=C\\CN3CCCCCC3)cc2Cl)c1", "74.5 µM (active)"],
  ["CC(C)c1cccc(C(C)C)c1N1C(=O)c2ccc(O)cc2C1=O", "50 µM (active)"],
  ["COC(=O)c1ccccc1O", "inactive"],
  ["CCOCCOCCOCCO", "inactive"],
  ["C[C@](N)(Cc1ccc(O)c(O)c1)C(=O)O", "inactive"],
  ["COc1ccc(-n2nc(C(F)F)cc2-c2ccc(S(C)=O)cc2)cc1 (stereo unspecified)", "inactive"],
  ["CN(C)c1ccc(N=NS(=O)(=O)O)cc1", "inactive"],
  ["Cc1[nH]cnc1C[C@H]1CCc2c(C)c3ccccc3n2C1=O", "28 µM (active)"]
]}

Now, please, on to the next molecule.
Quick one: AC50 of CC1=CC(=O)CC(C)(C)C1 ?
inactive

* * *

assay: APR_HepG2_CellCycleArrest_24hr: Apredica 24-hour HepG2 Assay for Cell Cycle Arrest (AID 2282905); settings: imaging, actives raise or lower the signal;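 further: cell cycle arrest scored as ratio of 2N to 4N nuclear DNA content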
Calls of active or inactive are those of the source. Rule for the calls: active = hit-call score of the fitted dose curve at least 0.9, where 1 is the maximum; inactive = score below 0.9.
Use one of these outcomes when replying: active, inactive

Could you please tell me the result logged for Fc1ccccc1[C@@H](F)COC1CCC(Nc2ncnc3[nH]ncc23)CC1 (some centres not stated) in this assay?
active

Again, but for CCC(C)(C)C(=O)O[C@H]1C[C@@H](C)C=C2C=C[C@H](C)[C@H](CC[C@@H]3C[C@@H](O)CC(=O)O3)[C@H]21
active

Again, but for On1ccccc1=S
inactive

Again, but for COCCOc1cc2cc(C(=O)NC3CCN(C(C)C)CC3)n(CC(=O)Nc3ccc(Cl)cn3)c2cn1
inactive

Again, but for CCc1cc(SCc2sc(-c3ccc(C(F)(F)F)cc3)nc2CN2CCN(c3ccc(OC)cc3)CC2)ccc1OCC(=O)O
inactive

Again, but for Clc1nc(Cl)c(Cl)c(Cl)c1Cl
active

Again, but for O=C1OC(=O)C2C3C=CC(C3)C12 (configuration not stated)
inactive

Again, but for CCn1nc(Cc2ccccc2)cc1C1CCN(C[C@H]2C[C@H](N(C)[C@@H](C(=O)O)C(C)C)C[C@@H]2c2cccc(F)c2)CC1
active

Again, but for O=C(O)c1cc(N=Nc2ccc(S(=O)(=O)Nc3ccccn3)cc2)ccc1O
inactive

Again, but for O=C(O)CCN(C1(C(=O)NO)CCCC1)S(=O)(=O)c1ccc(Oc2ccc(F)cc2)cc1
inactive

Again, but for CCN(C(=O)c1cc(C)cc(OC[C@H](C)Nc2ccncc2)c1)C(C)C
inactive

Again, but for Cc1c(-c2cccnc2)c2ccccc2n1CCCCC(=O)O
inactive

* * *

target: Heat shock factor protein 1 (Homo sapiens) (UniProt Q00613); assay: ATG_HSE_CIS: Attagene CIS-FACTORIAL HepG2 Assay for human Heat Shock Transcription Factor 1 (HSE) (AID 2282953); conditions: HepG2 HSE cis-reporter, Attagene RNA transcription; actives raise or lower the signal
Sequence (Q00613 whole entry, looked up): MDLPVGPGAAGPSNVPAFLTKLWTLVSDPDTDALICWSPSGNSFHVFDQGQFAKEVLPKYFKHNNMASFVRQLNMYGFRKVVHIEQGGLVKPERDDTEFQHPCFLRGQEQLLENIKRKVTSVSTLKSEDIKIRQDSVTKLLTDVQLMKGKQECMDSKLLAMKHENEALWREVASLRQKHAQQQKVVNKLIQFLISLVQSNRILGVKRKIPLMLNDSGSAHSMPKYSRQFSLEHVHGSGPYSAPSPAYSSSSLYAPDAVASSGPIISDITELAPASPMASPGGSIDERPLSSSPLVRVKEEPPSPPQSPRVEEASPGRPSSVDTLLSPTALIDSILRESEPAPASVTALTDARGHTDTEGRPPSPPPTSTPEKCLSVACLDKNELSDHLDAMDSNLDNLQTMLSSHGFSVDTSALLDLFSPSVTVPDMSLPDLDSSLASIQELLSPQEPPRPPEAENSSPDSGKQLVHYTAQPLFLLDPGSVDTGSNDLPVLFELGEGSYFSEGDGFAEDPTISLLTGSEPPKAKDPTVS
Calls of active or inactive are those of the source. Rule for the calls: active = hit-call score of the fitted dose curve at least 0.9, where 1 is the maximum; inactive = score below 0.9.
Use one of these outcomes when replying: active, inactive

Could you please tell me the result logged for CC(=O)OCCC(C)C in this assay?
inactive

Again, but for O=c1[nH]c2ccc(S(=O)CCN3CCC(Cc4ccc(F)cc4)CC3)cc2o1 (configuration not stated)
inactive

Again, but for Cn1c(=O)c2c(ncn2C)n(C)c1=O
inactive

Again, but for COCCOc1cc2cc(C(=O)NC3CCN(C(C)C)CC3)n(CC(=O)Nc3ccc(Cl)cn3)c2cn1
inactive

Again, but for C=CC(=C)CCC=C(C)C
inactive

Again, but for CN(C)c1ccc(Cc2ccc(N(C)C)cc2)cc1
inactive

Again, but for Cn1c(=O)cc(Oc2ccc(F)cc2F)c2cnc(NCC(C)(C)O)nc21
inactive

Again, but for CCc1cc(SCc2sc(-c3ccc(C(F)(F)F)cc3)nc2CN2CCN(c3ccc(OC)cc3)CC2)ccc1OCC(=O)O
active

Again, but for O=C(OC[C@H]1O[C@@H](OC(=O)c2cc(O)c(O)c(OC(=O)c3cc(O)c(O)c(O)c3)c2)[C@H](OC(=O)c2cc(O)c(O)c(OC(=O)c3cc(O)c(O)c(O)c3)c2)[C@@H](OC(=O)c2cc(O)c(O)c(OC(=O)c3cc(O)c(O)c(O)c3)c2)[C@@H]1OC(=O)c1cc(O)c(O)c(OC(=O)c2cc(O)c(O)c(O)c2)c1)c1cc(O)c(O)c(OC(=O)c2cc(O)c(O)c(O)c2)c1
inactive

Again, but for CCCC(=O)OCC
inactive

Again, but for NC(=O)NO
inactive

Again, but for Cc1[nH]cnc1C[C@H]1CCc2c(C)c3ccccc3n2C1=O
active

Again, but for CC(C)CCO
inactive

Again, but for Cc1ccc(N)cc1O
inactive

Again, but for Nc1ccc(Nc2ccccc2)cc1
inactive

Again, but for CC(C)=CCCC(C)CCO (configuration not stated)
inactive

Again, but for CCn1nc(Cc2ccccc2)cc1C1CCN(C[C@H]2C[C@H](N(C)[C@@H](C(=O)O)C(C)C)C[C@@H]2c2cccc(F)c2)CC1
inactive
